Hello, the source for this data is patent US20240066137A1, in case you need it.

For each entry below, report its EC50, FGFR1/KLB functional assay; n = 2 value.
# test_target: FGFR1/KLB acceptor (UniProt P11362 22-822; Q86Z14 1-1044, limits assumed)
# Sequence (P11362 22-822 limits assumed, chain 1 of 2): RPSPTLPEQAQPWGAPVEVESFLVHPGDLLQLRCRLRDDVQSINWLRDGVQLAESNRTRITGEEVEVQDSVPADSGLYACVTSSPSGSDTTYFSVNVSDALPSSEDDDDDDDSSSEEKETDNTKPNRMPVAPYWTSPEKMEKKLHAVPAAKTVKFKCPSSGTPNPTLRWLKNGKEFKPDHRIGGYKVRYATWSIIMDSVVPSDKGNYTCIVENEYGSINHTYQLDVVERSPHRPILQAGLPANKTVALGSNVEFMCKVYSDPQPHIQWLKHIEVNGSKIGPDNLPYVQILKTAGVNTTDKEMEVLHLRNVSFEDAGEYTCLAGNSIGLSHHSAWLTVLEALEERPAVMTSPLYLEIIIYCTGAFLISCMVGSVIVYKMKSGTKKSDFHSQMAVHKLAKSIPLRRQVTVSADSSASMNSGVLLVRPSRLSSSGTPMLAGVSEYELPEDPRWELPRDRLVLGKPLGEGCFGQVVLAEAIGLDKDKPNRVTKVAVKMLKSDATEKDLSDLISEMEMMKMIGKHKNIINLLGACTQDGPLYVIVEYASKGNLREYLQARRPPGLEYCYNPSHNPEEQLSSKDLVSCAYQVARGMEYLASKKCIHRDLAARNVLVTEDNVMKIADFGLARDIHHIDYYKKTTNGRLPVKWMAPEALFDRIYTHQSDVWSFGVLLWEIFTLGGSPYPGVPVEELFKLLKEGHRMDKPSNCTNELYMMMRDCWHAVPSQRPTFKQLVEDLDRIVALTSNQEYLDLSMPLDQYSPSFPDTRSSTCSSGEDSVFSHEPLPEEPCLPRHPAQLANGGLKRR
# Sequence (Q86Z14 whole entry, chain 2 of 2): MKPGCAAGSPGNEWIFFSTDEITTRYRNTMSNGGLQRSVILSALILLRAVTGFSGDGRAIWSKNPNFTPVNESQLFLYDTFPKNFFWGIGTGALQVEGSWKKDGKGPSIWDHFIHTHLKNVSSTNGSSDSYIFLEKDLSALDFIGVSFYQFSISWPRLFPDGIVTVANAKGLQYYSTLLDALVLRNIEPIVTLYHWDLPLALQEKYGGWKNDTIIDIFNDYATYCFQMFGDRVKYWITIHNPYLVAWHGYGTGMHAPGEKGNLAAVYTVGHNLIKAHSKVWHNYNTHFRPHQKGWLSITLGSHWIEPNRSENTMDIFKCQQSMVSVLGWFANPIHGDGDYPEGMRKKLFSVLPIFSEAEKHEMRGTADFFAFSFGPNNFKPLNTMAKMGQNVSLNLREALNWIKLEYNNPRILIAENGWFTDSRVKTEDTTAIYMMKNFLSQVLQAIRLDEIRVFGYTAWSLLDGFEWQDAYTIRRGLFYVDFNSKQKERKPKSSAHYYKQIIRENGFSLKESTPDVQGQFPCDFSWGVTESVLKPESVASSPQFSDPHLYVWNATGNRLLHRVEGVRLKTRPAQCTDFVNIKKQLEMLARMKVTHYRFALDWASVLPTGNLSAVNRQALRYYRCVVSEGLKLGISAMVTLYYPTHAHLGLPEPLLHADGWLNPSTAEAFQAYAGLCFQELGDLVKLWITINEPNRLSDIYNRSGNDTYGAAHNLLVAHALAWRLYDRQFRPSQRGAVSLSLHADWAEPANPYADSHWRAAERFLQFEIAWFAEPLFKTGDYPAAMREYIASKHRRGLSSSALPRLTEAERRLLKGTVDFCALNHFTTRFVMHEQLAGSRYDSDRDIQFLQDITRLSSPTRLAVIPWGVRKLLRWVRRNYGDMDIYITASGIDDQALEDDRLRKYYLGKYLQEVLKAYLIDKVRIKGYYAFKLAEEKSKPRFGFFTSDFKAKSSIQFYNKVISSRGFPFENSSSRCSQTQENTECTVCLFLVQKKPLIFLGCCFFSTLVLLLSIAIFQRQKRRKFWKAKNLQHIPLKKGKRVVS
# test_details: cell-based or functional assay
Give bare numbers, in nM.

Illustrative cases are given below, each with its answer.
• FGF#1 (ligand) HPIPDSSPLLQFGGQVRQRYLYTDDAQQTEAHLEIREDGTVGGAADQSPESLLQLKALKPGVIQILGVKTSRFLCQRPDGALYGSLHFDPEACSFREEIRPDGYNVYQSEAHGLPLHLPGNKSPHRDPAPRGPARFLPLPGLPPALPEPPGILAPQPPDVGSSDPLSMVTGLEANRSPSYES = 21
• FGF#9 (ligand) HPIPDSSPLLQFGGQVRQVYLYTDDAQQTEAHLEIREDGTVGGAADQSPESLLQLKALKPGVIQILGVKTSRFLCQRPDGALYGSLHFDPEACSFRERLLEDGYNVYQSEAHGLPLHLPGNKSPHRDPAPRGPARFLPLPGLPPALPEPPGILAPQPPDVGSSDPLSMVEGSQGRSPSYES = 19.1
• FGF#5 (ligand) HPIPDSSPLLQFGGQVRQVYLYTDDAQQTEAHLEIREDGTVGGAADQSPESLLQLKALKPGVIQILGVKTSRFLCQRPDGALYGSLHFDPEACSFREDLKEDGYNVYQSEAHGLPLHLPGNKSPHRDPAPRGPARFLPLPGLPPALPEPPGILAPQPPDVGSSDPLSMVEGSQGRSPSYES = 22.3

Moving on to the next binder.
## Task Query (binder): FGF#7 (ligand) HPIPDSSPLLQFGGQVRQVYLYTDDAQQTEAHLEIREDGTVGGAADQSPESLLQLKALKPGVIQILGVKTSRFLCQRPDGALYGSLHFDPEACSFREDLKEDGYNVYQSEAHGLPLHLPGNKSPHRDPAPRGPARFLPLPGLPPALPEPPGILAPQPPDVGSSDPLRLVEPSQLRSPSFE ; field requested: EC50, FGFR1/KLB functional assay; n = 2
## Result 17.7
